Test: Volume of distribution at steady state in BALB/c mouse at 1 mg/kg, iv measured up to 24 hrs by LC-MS/MS analysis
Assay type: ADME, organism-based
Settings: in vivo, read-out: Vdss
Endpoint name: Vd (L/kg)
Only the number, expressed in L/kg, is required.

- Molecule smiles: "N#Cc1ccc(N2CCN([C@H]3C=C(c4cc5ncccc5c(=O)[nH]4)CC3)CC2)cc1"
  Units: "L/kg"
  Numeric readout: 0.2
- Molecule smiles: "N#Cc1ccc(N2CCN(CCCc3cc4c(N)cc(F)cc4c(=O)[nH]3)CC2)cc1"
  Units: "L/kg"
  Numeric readout: 0.8

Quick one: give measured Vd for N#Cc1ccc(N2CCN([C@H]3C=C(c4cc5c(N)cc(F)cc5c(=O)[nH]4)CC3)CC2)cc1
0.4

----------
Biological target: Protein mono-ADP-ribosyltransferase PARP3 (Homo sapiens)
Sequence (Q9Y6F1 whole entry): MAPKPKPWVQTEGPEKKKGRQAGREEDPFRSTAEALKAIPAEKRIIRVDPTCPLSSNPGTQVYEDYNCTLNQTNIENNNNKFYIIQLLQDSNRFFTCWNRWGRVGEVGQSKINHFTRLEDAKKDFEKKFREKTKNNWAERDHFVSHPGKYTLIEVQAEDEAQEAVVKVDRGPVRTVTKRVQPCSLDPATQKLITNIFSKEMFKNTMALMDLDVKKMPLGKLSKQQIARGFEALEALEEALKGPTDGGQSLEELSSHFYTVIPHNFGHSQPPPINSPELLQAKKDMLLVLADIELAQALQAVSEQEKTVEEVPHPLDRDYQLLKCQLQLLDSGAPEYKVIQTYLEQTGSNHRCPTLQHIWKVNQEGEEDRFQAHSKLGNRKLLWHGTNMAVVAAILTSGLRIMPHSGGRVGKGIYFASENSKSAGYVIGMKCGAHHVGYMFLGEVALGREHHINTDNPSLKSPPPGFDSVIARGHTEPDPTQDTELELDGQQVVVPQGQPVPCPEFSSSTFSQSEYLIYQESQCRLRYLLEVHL
Endpoint name: IC50 (µM)
Only the number, expressed in µM, is required.

Quick one: give measured IC50 for N#Cc1ccc(N2CCN([C@H]3C=C(c4cc5ncccc5c(=O)[nH]4)CC3)CC2)cc1
8

----------
Assay: Metabolic stability of the compound in human plasma measured up to 4 hrs
Format: ADME, cell-free
Details: read-out: Stabilty
Endpoint name: remaining at 4 h
// unit must come after the numeric part

Quick one: give measured remaining at 4 h for N#Cc1ccc(N2CCN([C@H]3C=C(c4cc5ncccc5c(=O)[nH]4)CC3)CC2)cc1
80%

----------
Listing of recorded AUC(0-t) at 24 h by entry.
Experiment: AUClast in BALB/c mouse at 10 mg/kg, po measured up to 24 hrs by LC-MS/MS analysis
Type: ADME, organism-based
Design: route oral, dose 10 mg/kg, time <=24
Settings: in vivo

- Molecule smiles: "N#Cc1ccc(N2CCN(CCCc3cc4c(N)cc(F)cc4c(=O)[nH]3)CC2)cc1"
  AUC(0-t) at 24 h: "1.9 µM·h"
- Molecule smiles: "N#Cc1ccc(N2CCN([C@H]3C=C(c4cc5c(N)cc(F)cc5c(=O)[nH]4)CC3)CC2)cc1"
  AUC(0-t) at 24 h: "106 µM·h"

Consider the additional molecule presented here.
Quick one: give measured AUC(0-t) at 24 h for N#Cc1ccc(N2CCN([C@H]3C=C(c4cc5ncccc5c(=O)[nH]4)CC3)CC2)cc1
403 µM·h

----------
Test: Toxicity in rat assessed as NOAEL for CNS effect
Conditions: in vivo
Endpoint name: NOAEL (mg/kg/day)
Only the number, expressed in mg/kg/day, is required.

Quick one: give measured NOAEL for N#Cc1ccc(N2CCN([C@H]3C=C(c4cc5ncccc5c(=O)[nH]4)CC3)CC2)cc1
30

----------
Listing of recorded AUC(0-t) at 24 h by entry.
Assay: AUClast in BALB/c mouse at 1 mg/kg, iv measured up to 24 hrs by LC-MS/MS analysis
Format: ADME, organism-based
Set-up: route intravenous, dose 1 mg/kg, time <=24
Conditions: in vivo
Only the number, expressed in µM·h, is required.

- Molecule smiles: "N#Cc1ccc(N2CCN([C@H]3C=C(c4cc5c(N)cc(F)cc5c(=O)[nH]4)CC3)CC2)cc1"
  AUC(0-t) at 24 h / µM·h: 18

Quick one: give measured AUC(0-t) at 24 h for N#Cc1ccc(N2CCN(CCCc3cc4c(N)cc(F)cc4c(=O)[nH]3)CC2)cc1
2.4

Quick one: give measured AUC(0-t) at 24 h for N#Cc1ccc(N2CCN([C@H]3C=C(c4cc5ncccc5c(=O)[nH]4)CC3)CC2)cc1
94

----------
Assay: Metabolic stability of the compound in mouse plasma measured up to 4 hrs
Type: ADME, cell-free
Settings: read-out: Stabilty
Endpoint name: remaining at 4 h
// unit must come after the numeric part

Quick one: give measured remaining at 4 h for N#Cc1ccc(N2CCN([C@H]3C=C(c4cc5ncccc5c(=O)[nH]4)CC3)CC2)cc1
80%

----------
Listing of recorded pIC50 by entry.
Biological target: Poly [ADP-ribose] polymerase 2 (Homo sapiens, UniProt Q9UGN5)
Sequence (Q9UGN5 whole entry, the tested form may be a part): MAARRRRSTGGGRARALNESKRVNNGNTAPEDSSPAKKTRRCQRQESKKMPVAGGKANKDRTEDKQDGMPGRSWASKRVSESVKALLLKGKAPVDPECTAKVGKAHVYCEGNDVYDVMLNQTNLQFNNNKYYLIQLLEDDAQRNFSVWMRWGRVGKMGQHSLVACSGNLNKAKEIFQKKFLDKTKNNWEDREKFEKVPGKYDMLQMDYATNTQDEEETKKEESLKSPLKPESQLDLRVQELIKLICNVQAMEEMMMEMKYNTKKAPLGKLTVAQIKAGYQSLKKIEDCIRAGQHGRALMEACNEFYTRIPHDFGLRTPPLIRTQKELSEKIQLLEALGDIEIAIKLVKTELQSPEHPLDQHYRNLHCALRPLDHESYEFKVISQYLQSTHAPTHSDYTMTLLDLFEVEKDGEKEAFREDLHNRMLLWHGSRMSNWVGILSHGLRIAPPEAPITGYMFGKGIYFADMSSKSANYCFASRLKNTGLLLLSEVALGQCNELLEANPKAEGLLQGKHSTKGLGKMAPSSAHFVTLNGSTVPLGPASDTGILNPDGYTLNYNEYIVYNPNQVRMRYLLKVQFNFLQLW
Test: Inhibition of N-terminal GST-tagged human PARP2 (2 to 583 residues) expressed in baculovirus infected Sf9 cells using histone mixture (H2A and H2B) and biotinylated NAD+ as substrate in presence of activated DNA incubated for 60 mins by chemiluminescence assay
Notebook: values listed as pIC50 are -log10 of the concentration (mol/L).

Guide cases for pIC50, answers given:
- Molecule smiles: "N#Cc1ccc(N2CCN([C@H]3C=C(c4cc5c(N)cccc5c(=O)[nH]4)CC3)CC2)cc1"
  Measured on: "Poly [ADP-ribose] polymerase 2 (Homo sapiens, UniProt Q9UGN5)"
  pIC50: 8.82
- Molecule smiles: "NC(=O)c1ccc(N2CCN(CCCc3cc4c(N)cc(F)cc4c(=O)[nH]3)CC2)cc1"
  Measured on: "Poly [ADP-ribose] polymerase 2 (Homo sapiens, UniProt Q9UGN5)"
  pIC50: 8.34
- Molecule smiles: "N#Cc1ccc(N2CCN([C@@H]3C=C(c4cc5c(N)cccc5c(=O)[nH]4)CC3)CC2)cc1"
  Measured on: "Poly [ADP-ribose] polymerase 2 (Homo sapiens, UniProt Q9UGN5)"
  pIC50: 6.78
- Molecule smiles: "N#Cc1ccc(N2CCN([C@H]3C=C(c4cc5c(N)cc(F)cc5c(=O)[nH]4)CC3)CC2)c(F)c1"
  Measured on: "Poly [ADP-ribose] polymerase 2 (Homo sapiens, UniProt Q9UGN5)"
  pIC50: 8.59
- Molecule smiles: "N#Cc1ccc(N2CCN([C@H]3C=C(c4cc5ncccc5c(=O)[nH]4)CC3)CC2)cc1"
  Measured on: "Poly [ADP-ribose] polymerase 2 (Homo sapiens, UniProt Q9UGN5)"
  pIC50: 8.09
- Molecule smiles: "N#Cc1ccc(N2CCN(CCCc3cc4c(N)cc(F)cc4c(=O)[nH]3)CC2)cc1"
  Measured on: "Poly [ADP-ribose] polymerase 2 (Homo sapiens, UniProt Q9UGN5)"
  pIC50: 8.41
- Molecule smiles: "N#Cc1ccc(N2CCN([C@H]3C=C(c4cc5ncc(F)cc5c(=O)[nH]4)CC3)CC2)cc1"
  Measured on: "Poly [ADP-ribose] polymerase 2 (Homo sapiens, UniProt Q9UGN5)"
  pIC50: 7.57
- Molecule smiles: "N#Cc1ccc(N2CCN([C@@H]3C=C(c4cc5c(N)cc(F)cc5c(=O)[nH]4)CC3)CC2)cc1"
  Measured on: "Poly [ADP-ribose] polymerase 2 (Homo sapiens, UniProt Q9UGN5)"
  pIC50: 6.70
- Molecule smiles: "Nc1cc(F)cc2c(=O)[nH]c(CCCN3CCN(c4ccc(F)cc4)CC3)cc12"
  Measured on: "Poly [ADP-ribose] polymerase 2 (Homo sapiens, UniProt Q9UGN5)"
  pIC50: 8.02
- Molecule smiles: "N#Cc1ccc(N2CCN([C@H]3C=C(c4cc5ncccc5c(=O)[nH]4)CC3)CC2)nc1"
  Measured on: "Poly [ADP-ribose] polymerase 2 (Homo sapiens, UniProt Q9UGN5)"
  pIC50: 7.78

Quick one: give measured pIC50 for N#Cc1ccc(N2CCN([C@H]3C=C(c4cc5c(N)cc(F)cc5c(=O)[nH]4)CC3)CC2)cc1
8.89

Quick one: give measured pIC50 for N#Cc1ccc(N2CCN([C@@H]3C=C(c4cc5c(N)cc(F)cc5c(=O)[nH]4)CC3)CC2)c(F)c1
7.24

Quick one: give measured pIC50 for CNC(=O)c1ccc(N2CCN(CCCc3cc4c(N)cc(F)cc4c(=O)[nH]3)CC2)cc1
7.97

Quick one: give measured pIC50 for N#Cc1ccc(N2CCN(CCCc3cc4c(N)cccc4c(=O)[nH]3)CC2)cc1
8.14

----------
Assay: Cmax in BALB/c mouse at 1 mg/kg, iv measured up to 24 hrs by LC-MS/MS analysis
Format: ADME, organism-based
Design: route intravenous, dose 1 mg/kg, time <=24
Settings: in vivo
Endpoint name: Cmax (µM)
Only the number, expressed in µM, is required.

- Molecule smiles: "N#Cc1ccc(N2CCN(CCCc3cc4c(N)cc(F)cc4c(=O)[nH]3)CC2)cc1"
  Units: "µM"
  Cmax: 3.7
- Molecule smiles: "N#Cc1ccc(N2CCN([C@H]3C=C(c4cc5c(N)cc(F)cc5c(=O)[nH]4)CC3)CC2)cc1"
  Units: "µM"
  Cmax: 11

Consider the additional molecule presented here.
Quick one: give measured Cmax for N#Cc1ccc(N2CCN([C@H]3C=C(c4cc5ncccc5c(=O)[nH]4)CC3)CC2)cc1
11

The reported measurements were obtained from ChEMBL document CHEMBL4673259.
